Target: T1, recombinant N-terminal extracellular domain of the human PTH1R receptor (human, UniProt Q03431 27-188, limits assumed)
T1 construct: domain: N-terminal extracellular domain; Bought reagent; also called N-ECD PTH1R; PTH1R N-terminal ECD
T1 sequence (looked up): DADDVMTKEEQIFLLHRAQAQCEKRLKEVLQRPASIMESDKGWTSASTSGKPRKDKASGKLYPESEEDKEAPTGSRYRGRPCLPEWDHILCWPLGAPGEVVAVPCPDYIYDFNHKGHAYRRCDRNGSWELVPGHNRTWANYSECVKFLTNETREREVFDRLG
Test: SPR, IgG captured, ECD injected
assay_readout: koff (s⁻¹)

- binder: "XPA.85.328 (antibody, V domains shown, IgG; also called Ab328) VH: QMQLVQSGAEVKKPGSSVKVSCKASGGTFSSYAISWVRQAPGQGLEWMGGIIPIFGTANYAQKFQGRVTITADESTSTAYMELSSLRSEDTAVYYCARGYVVARLWGQGTLVTVSS VL: DVVMTQTPLSLSVTPGQPASISCKSSQSLLHIDGKTYLYWYLQKSGQSPQLLIYEVSNRFSGVPDTFSGSGSGTDFTLKISRVEAEDVGVYYCMQSLHFPITFGQGTRLEIK"
  numeric_readout: 0.00018
- binder: "XPA.85.338 (antibody, V domains shown, Light-chain-shuffled variant of XPA.85.017) VH: EVQLVETGGGVVRPGGSLRLSCAASGFTFSSSAMSWVRQTPGKELQWVSAITPGGEGTYYADVVKGRFTISRDNSKDTLYLQMDSLRAEDTAVYYCARDLYGSYGDAFDIWGQGTLVTVSS VL: SYELTQPPSVSVAPGQTATITCSGDKLGDKYASWYQQKPGQSPVLVMFENRDRPSGIPDRFSGSNSGNTATLTISGTQAMDEADYYCQAWDSSTAWVFGGGTQLTVL"
  numeric_readout: 0.00057
- binder: "XPA.85.345 (antibody, V domains shown, Light-chain-shuffled variant of XPA.85.012) VH: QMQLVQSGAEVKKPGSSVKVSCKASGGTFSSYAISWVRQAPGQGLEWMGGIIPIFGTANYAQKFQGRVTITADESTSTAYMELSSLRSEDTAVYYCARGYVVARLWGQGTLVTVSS VL: ETTLTQSPAFMSASVGDRVTITCQASQDINNFLNWYQQKPGKAPKFLIYDASNLEKGVPSRFSGRGSGTEFTLTISSLQPEDIATYYCQQYRDFPLTFGQGTRLEIK"
  numeric_readout: 0.0013
